# MIC per entry
tested on: Streptococcus pyogenes; experiment: Minimum inhibitory concentration against Streptococcus pyogenes; format: functional
Respond with the figure and its unit, in that order.

Here's what some known entries look like.
compound="CO[C@@]1(NC(=O)Cc2csc(N)n2)C(=O)N2C(C(=O)O)=C(Cl)CSC21 (some centres not stated)" readout_value="1 µg/mL"
compound="CO[C@@]1(NC(=O)COc2ccccc2)C(=O)N2C(C(=O)O)=C(Cl)CSC21 (some centres not stated)" readout_value="128 µg/mL"
compound=N[C@@H](C(=O)N[C@@H]1C(=O)N2C(C(=O)O)=C(Cl)CS[C@H]12)c1ccccc1.O readout_value="0.25 µg/mL"
compound="O=C(COc1ccccc1)N[C@@H]1C(=O)N2C(C(=O)O)=C(Cl)CSC12 (some centres not stated)" readout_value="0.125 µg/mL"

Recorded MIC for CO[C@@]1(NC(=O)Cc2cccs2)C(=O)N2C(C(=O)O)=C(Cl)CSC21 (some centres not stated) , please?
128 µg/mL

Recorded MIC for O=C(Cc1cccs1)N[C@@H]1C(=O)N2C(C(=O)O)=C(Cl)CSC12 (some centres not stated) , please?
0.125 µg/mL

Recorded MIC for Nc1nc(CC(=O)N[C@@H]2C(=O)N3C(C(=O)O)=C(Cl)CSC23)cs1 (some centres not stated) , please?
0.125 µg/mL
